experimental-system: Carboanhydrase IX (Homo sapiens, UniProt Q16790 38-459)
test-method-notes: cell-based or functional assay
Classification field: true = MIAPaCa 2/CA9+ IC50 at or over 0.4 nM; false = MIAPaCa 2/CA9+ IC50 under 0.4 nM.

Before answering, review these 3 worked examples.
Example 322 (antibody, human IgG1, kappa, V domains shown, linker-toxophore on lysine NH) VH: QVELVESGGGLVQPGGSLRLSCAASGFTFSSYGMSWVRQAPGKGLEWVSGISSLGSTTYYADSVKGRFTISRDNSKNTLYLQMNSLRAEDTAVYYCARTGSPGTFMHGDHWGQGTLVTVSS VL: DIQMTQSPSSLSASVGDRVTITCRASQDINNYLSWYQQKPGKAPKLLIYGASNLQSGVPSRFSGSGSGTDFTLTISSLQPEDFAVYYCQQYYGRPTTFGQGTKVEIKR : true
Example 321 (antibody, human IgG1, kappa, V domains shown, linker-toxophore on cysteine S) VH: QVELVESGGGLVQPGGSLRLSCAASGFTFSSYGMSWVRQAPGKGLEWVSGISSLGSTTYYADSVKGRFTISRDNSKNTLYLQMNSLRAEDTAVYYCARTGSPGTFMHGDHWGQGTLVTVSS VL: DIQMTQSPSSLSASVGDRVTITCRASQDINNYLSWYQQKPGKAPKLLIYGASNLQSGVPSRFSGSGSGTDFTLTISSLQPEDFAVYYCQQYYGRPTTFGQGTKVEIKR : true
Example 300 (antibody, human IgG1, kappa, V domains shown, linker-toxophore on cysteine S) VH: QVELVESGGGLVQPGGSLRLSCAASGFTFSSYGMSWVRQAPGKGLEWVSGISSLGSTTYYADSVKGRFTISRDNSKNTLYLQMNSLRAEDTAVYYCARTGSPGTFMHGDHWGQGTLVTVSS VL: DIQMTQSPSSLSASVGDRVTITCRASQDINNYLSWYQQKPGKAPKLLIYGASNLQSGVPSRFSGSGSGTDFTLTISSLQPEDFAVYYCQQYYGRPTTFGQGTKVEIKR : false

# next binder below
Given the entry Example 285 (antibody, human IgG1, kappa, V domains shown, linker-toxophore on cysteine S) VH: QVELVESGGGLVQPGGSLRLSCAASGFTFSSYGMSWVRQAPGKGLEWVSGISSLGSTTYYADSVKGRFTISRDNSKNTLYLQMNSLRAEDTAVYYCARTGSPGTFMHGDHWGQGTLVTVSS VL: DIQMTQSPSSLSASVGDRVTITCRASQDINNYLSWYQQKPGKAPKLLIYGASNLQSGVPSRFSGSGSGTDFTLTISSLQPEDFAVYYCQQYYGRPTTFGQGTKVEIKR , answer whether its MIAPaCa 2/CA9+ IC50 meets or surpasses 0.4 nM.
true
